B1: HDV Ribozyme (parent)
chain: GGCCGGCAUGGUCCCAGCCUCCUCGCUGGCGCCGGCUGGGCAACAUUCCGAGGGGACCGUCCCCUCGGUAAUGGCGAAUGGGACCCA

Variants of: B1
Experimental details: self-cleavage, relative activity (ratio to wild type); higher = more cleavage; co-transcriptional
Collected self-cleavage values appear next to each entry.
Give only the figure.

May I ask what self-cleavage has been recorded for GGCCGGCAUGGUCCCAGCCUCCUCGCUGGCGCCGGCUUGGCAACAUUCCGAGGGGACCGUCCCCGCGGUAAUGGCGAAUGGGACCCA [G38U U65G] ?
0.233

For GGCCGGCAUGGUCCCAGCCUCCUCGAUGGAGCCGGCUGGGCAACAUUCCGAGGGGACCGUCCCCUCGGUAAUGGCGAAUGGGACCCA [C26A C30A] then?
0.491

For GGCCGGCAUGGUCCCAGCCUCCUCACUGGCGCCAGCUGGGCAACAUUCCGAGGGGACCGUCCCCUCGGUAAUGGCGAAUGGGACCCA [G25A G34A] then?
0.0863

For GGCCGGCAUGGUCCCAGCCUCCUCGCUGGCGCCGGCUGGGCAACAAUCCGAGGGGACCGUACCCUCGGUAAUGGCGAAUGGGACCCA [U46A C61A] then?
0.8

For GGCCGGCAUGGUCCCAGCCUCCUCGCUGGCGCCGGCUGGGCAACAUUCCGAGGGGACCGUCCUCUCGGUAAUGGCGAGUGGGACCCA [C63U A78G] then?
0.755

For GGCCGGCAUGGUCCCAGCCUCCUCGCUGGCGCCGGCUGGGCAACAUUCCGAGGGGACCGUCCCCUCGGUAAUGACGUAUGGGACCCA [G74A A77U] then?
0.267

For GGCCGGCAUGGUCCCAGCUUCCUCGCUGGCGCCGGCUGGGCAACGUUCCGAGGGGACCGUCCCCUCGGUAAUGGCGAAUGGGACCCA [C19U A45G] then?
0.111
